Target: T1, His-tagged cynomolgus monkey TIGIT (Acro Biosystems #TIT-05223) (cynomolgus monkey, UniProt A0A7N9I9V4 89-209)
T1 construct: Bought protein; also called cyno TIGIT; cynomolgus TIGIT; not shown: His tag
T1 sequence (A0A7N9I9V4 entry or part of it): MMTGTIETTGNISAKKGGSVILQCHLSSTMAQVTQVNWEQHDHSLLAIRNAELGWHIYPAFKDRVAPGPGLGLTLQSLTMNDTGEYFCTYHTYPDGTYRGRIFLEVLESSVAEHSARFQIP
Experiment: ELISA, coated His-TIGIT, 1 ug/ml
test_readout: Elisa OD450 (OD450)
The answer is to be given in OD450; state only the numeric part.

Please review the entries below; each comes with its answer.
{"binder": "43645p1.F12 (scFv, V domains shown) VH: EVQLLESGGGLVQPGGSLRLSCAASGFTFSDYWMSWVRQAPGKGLEWVSSINWNGDNTYYYADSVKGRFTISRDNSKNTLYLQMNSLRAEDTAVYYCAKSHTVLQYGMDVWGQGTTVTVSS VL: QSVLTQPPSASGTPGQRVTISCSGSSSNIQSNYVYWYQQLPGTAPKLLIYGNHQRPSGVPDRFSGSKSDTSASLAISGLQSEDEADYYCATWDASLNVWVFGGGTKLTVL", "Elisa OD450 [OD450]": 0.069}
{"binder": "43586p1.2.G4 (scFv, V domains shown) VH: EVQLLESGGGLVQPGGSLRLSCAASGFTFDDYVMSWVRQAPGKGLEWVSLINWNGDKTYYADSVKGRFTISRDNSKNTLYLQMNSLRAEDTAVYYCARHWIVFQYGLDVWGQGTTVTVSS VL: QSVLTQPLSASGTPGQRVTISCSGVSSNIEIKYVSWYQQLPGTAPKLLIYNSHQRPSGVPDRFSGSKSGTSASLAISGLQSEDEADYYCTSWDDRLKSWVFGGGTKLTVL", "Elisa OD450 [OD450]": 1.88}
{"binder": "43586p2.F10 (scFv, V domains shown) VH: VESGGGLVQPGGSLRLSCAASGFTVSDHYVSWVRQAPGKGLEWVSTSSSTNWNDGRTYYADSVKGRFTISRDNSENTLYLQMNSLRAEDTAVYYCAKDQYKGNDYYYYGMDVWGQGTTVTVSS VL: QSVLTQPPSASGTPGQRVTISCSASNSYIGTKYFYWYQQLPGTAPKLLIYLDSQRPSGVPDRFSGSKSGTSVSLAISGLQSEDEADYYCAFWDDHLHGWVFGGGTKLTVL", "Elisa OD450 [OD450]": 0.987}
{"binder": "43586p1.1.A7 (scFv, V domains shown) VH: EVQLLESGGGLVQPGGSLRLSCAASGFTFTSYAMSWVRQAPGKGLEWVAGISYDGSIQYYADSVKGRLTISRDNSKNTLNLQMNSLRAGDTAVYYCAKHLTGGTTDYYYYGMDVWGQGTTVTVSS VL: QSVMTQPPSASGTPGQRVTISCSGSSSNIGTNRYVHWYKQVPGTAPKLLIYGNHQRPSGVPDRFSGSKSGTSASLAISGLQSEDEADYYCAAWDGSLSGWVFGGGTKLTVL", "Elisa OD450 [OD450]": 1.34}
{"binder": "43586p2.E08 (scFv, V domains shown) VH: EVQLLESGGDLVQPGGSLRLSCAASGFTFDDYVMSWVRQAPGKGLEWVSLINWNGDKTYYADSVKDRFTISRDNSKNTLYLQMNSLRAEDTAVYYCARHWIVFQYGLDVWGQGTTVTVSS VL: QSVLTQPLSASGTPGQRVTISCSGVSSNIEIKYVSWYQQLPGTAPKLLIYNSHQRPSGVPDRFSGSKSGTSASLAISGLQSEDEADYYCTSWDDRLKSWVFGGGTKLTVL", "Elisa OD450 [OD450]": 1.87}

The binder 43645p1.C9 (scFv, V domains shown) VH: EVQLLESGGGLVQPGGSLRLSCAASGFTFSDFWMSWVRQAPGKGLEWVSSIINIQTYDYATYYADSVKGRFTISRDNSKNTLYLQMNSLRAEDTAIYYCAKDVAPGLPGGMDVWGQGTTVTVSS VL: QSVLTQPPSASGTPGQRVTISCSGSNSNIRNNFVSWYQHLPGTAPKLLIYGNSQRPSGVPDRFSGSKSGTSASLAISGLQSEDEADYYCTSWDFSVSGWVFGGGTKLTVL showed Elisa OD450 equal to 1.39

The binder 43586p1.2.C5 (scFv, V domains shown) VH: EVQLLESGGGLVQPGGSLRLSCAASGFTVSDHYMSWVRQAPGKGLEWVSTTSSTSWKNYTYYADSVKGRFSISRDNSENTLYLQMNGLRAEDTAVYYCAKGSYGMDVWGQGTTVTVSS VL: QSVLTQPPSASGTPGQRVTISCSGSNFNIGTKYLYWYQQLPGTAPKLLIYLDSQRPSGVPDRFSTSKPGTSASLAISGLQSEDEADYYCALWDDHLHGWVFGGGTKLTVL showed Elisa OD450 equal to 0.685

The binder 43586p1.2.E4 (scFv, V domains shown) VH: EVQLLESGGGLVQPGGSLRLSCAASGFTFSDYLMTWVRQAPGKGLEWVSTITWDGDRTYYADSVKGRFTISRDNSKNTLYLQMNSLRAEDTAVYYCAKHWTVFQYGMDVWGQGTTVTVSS VL: QSVLTQPPSASGTPGQRVTISCSGTISNIEIKYVSWYQQLPGTAPKLLIYGNHQRPSGVPDRFSGSKSGTSASLAISGLQSEDEADYYCSSWENDLKSWVFGGGTKLTVL showed Elisa OD450 equal to 1.86

The binder 43586p1.2.E2 (scFv, V domains shown) VH: EVQLLESGGGLVQPGGSLRLSCAASGFTFTSYLMSWVRQAPGKGLEWVSTITWDGDRTYYADSVKGRFTISRDNSKNTLYLQMNSLRVGDTAVYYCAKHWTVFQYGMDVWGQGTTVTVSS VL: QSVLTQPASASGTPGQRVTISCSGTISNIETKYVSWYQQLPGTAPKLLIYGNHQRPSGVPDRFSGSKSGTSASLAISGLQSEDEADYYCASWENDLKSWVFGGGTKLTVL showed Elisa OD450 equal to 1.73

The binder 43645p1.D7 (scFv, V domains shown) VH: EVQLLESGGGLVQPGGSLRLSCAASGFTFSRNSMSWVRQAPGKGLEWVSTINSGSSYTYYADSVKGRFTISRDNSKNTLYLQMNSLRAEDTAVYYCAKDNCNGYHCYGMDVWGLGTTVTVSS VL: QSVLTQPPSASGTPGQRVTISCSGSTSNVGDHYVHWYQQLPGTAPKLLIYKDDQRPSGVPDRFSGSKSGTSASLAISGLQSEDEADYYCSTWDNTLNGWVFGGGTKLTVL showed Elisa OD450 equal to 1.88
